- System: UniProtKB P07900
- Assay procedure: Inhibition of human recombinant HSP90alpha preincubated for 30 mins followed by FITC-GM addition and mesured after 3 hrs by fluorescence polarization assay

- Molecular string: "C#CCN(C)CCCOc1ccc(N(CCC)C(=O)c2cc(C(C)C)c(O)cc2O)cc1Cl"
  Relation symbol: "="
  IC50 [nM]: 170
- Molecular string: "C#CCN(C)CCCOc1ccc(N(C)C(=O)c2cc(C(C)C)c(O)cc2O)cc1Cl"
  Relation symbol: "="
  IC50 [nM]: 19
- Molecular string: "C#CCN(C)CCCOc1ccc(NC(=O)c2cc(C(C)C)c(O)cc2O)cc1Cl"
  Relation symbol: ">"
  IC50 [nM]: 10000
- Molecular string: "C#CCN(C)CCCOc1ccc(N(CC)C(=O)c2cc(C(C)C)c(O)cc2O)cc1Cl"
  Relation symbol: "="
  IC50 [nM]: 16
